Origin of the recorded values: paper PMC6583924

target: (h)V1a (Homo sapiens, UniProt P37288); experiment: In vitro V1a binding assay; conditions: read-out: % Binding inhibition (10^−8M)
Sequence (P37288 whole entry): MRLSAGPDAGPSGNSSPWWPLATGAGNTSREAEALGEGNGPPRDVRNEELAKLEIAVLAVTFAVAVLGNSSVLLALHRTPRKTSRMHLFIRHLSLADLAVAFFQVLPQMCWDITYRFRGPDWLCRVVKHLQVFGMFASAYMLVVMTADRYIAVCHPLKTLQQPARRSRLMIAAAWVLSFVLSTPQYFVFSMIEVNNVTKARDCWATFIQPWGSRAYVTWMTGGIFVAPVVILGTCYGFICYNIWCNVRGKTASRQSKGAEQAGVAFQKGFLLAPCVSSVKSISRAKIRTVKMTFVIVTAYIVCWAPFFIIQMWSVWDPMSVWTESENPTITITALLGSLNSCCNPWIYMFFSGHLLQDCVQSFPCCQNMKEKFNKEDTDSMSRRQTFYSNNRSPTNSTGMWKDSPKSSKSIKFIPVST
outcome.measure: inhibition at 0.01 µM (%)

> print(dat)
                                   compound                            test.target  experimental.value
1  Cc1ccccc1-c1ccc(C(=O)N2CC3(C)CC2CC(C)(C)C3)cc1 (centres unmarked)  (h)V1a (Homo sapiens, UniProt P37288)                84.3
2  COc1cc(C(=O)N2CCCN(C)CC2)ccc1-c1c[nH]c2ccccc12 [13c]  (h)V1a (Homo sapiens, UniProt P37288)                 6.2
3  COc1cc(C(=O)Nc2ccc(F)cc2)ccc1-c1c[nH]c2ccccc12 [13e]  (h)V1a (Homo sapiens, UniProt P37288)                 4.6
4  COc1cc(C(=O)N2CC3(C)CC2CC(C)(C)C3)ccc1-c1c[nH]c2ccncc12 (centres unmarked)  (h)V1a (Homo sapiens, UniProt P37288)                39.5
5  COc1cc(C(=O)N2CC3(C)CC2CC(C)(C)C3)ccc1-c1cccnc1F (centres unmarked)  (h)V1a (Homo sapiens, UniProt P37288)                  16

---

biological target: (h)V1a (Homo sapiens); experiment: In vitro V1a binding assay; conditions: read-out: % Binding inhibition (10^−9M)
outcome.measure: inhibition at 0.001 µM (%)

> print(dat)
                                   compound            test.target         outcome.measure  unit.abbreviation  experimental.value
1  Cc1ccccc1-c1ccc(C(=O)N2CC3(C)CC2CC(C)(C)C3)cc1 (stereo not drawn)  (h)V1a (Homo sapiens)  inhibition at 0.001 µM                  %                23.7
2  COc1cc(C(=O)N2CC3(C)CC2CC(C)(C)C3)ccc1-c1cccnc1F (stereo not drawn)  (h)V1a (Homo sapiens)  inhibition at 0.001 µM                  %                 9.7
3  COc1cc(C(=O)N2CCCN(C)CC2)ccc1-c1c[nH]c2ccccc12 [13c]  (h)V1a (Homo sapiens)  inhibition at 0.001 µM                  %                 5.7
4  COc1cc(C(=O)N2CC3(C)CC2CC(C)(C)C3)ccc1-c1cn(C)c2ccccc12 (stereo not drawn)  (h)V1a (Homo sapiens)  inhibition at 0.001 µM                  %                 1.8
5  CC1(C)CC2CC(C)(CN2C(=O)c2ccc(-c3c[nH]c4ccccc34)cc2F)C1 (stereo not drawn)  (h)V1a (Homo sapiens)  inhibition at 0.001 µM                  %                33.4
6  COc1cc(C(=O)N2CC3(C)CC2CC(C)(C)C3)ccc1-c1c[nH]c2ncccc12 (stereo not drawn)  (h)V1a (Homo sapiens)  inhibition at 0.001 µM                  %                 4.4
7  COc1cc(C(=O)N2CCC(F)(F)CC2)ccc1-c1c[nH]c2ccccc12 [13b]  (h)V1a (Homo sapiens)  inhibition at 0.001 µM                  %                13.7
8  Cc1ccncc1-c1ccc(C(=O)N2CC3(C)CC2CC(C)(C)C3)cc1 (stereo not drawn)  (h)V1a (Homo sapiens)  inhibition at 0.001 µM                  %                12.8
9  COc1cc(C(=O)N2CC3(C)CC2CC(C)(C)C3)ccc1-c1c[nH]c2ccncc12 (stereo not drawn)  (h)V1a (Homo sapiens)  inhibition at 0.001 µM                  %                 5.2
